target: hDHODH (Met30-Arg396) (Homo sapiens); construct: hDHODH (Met30-Arg396) was expressed and purified in the same manner as described in our recently published work; made in house; assay: hDHODH enzyme inhibition, DCIP assay; type: biochemical; settings: LLE = pIC50 − clogP
Sequence (Q02127 29-395): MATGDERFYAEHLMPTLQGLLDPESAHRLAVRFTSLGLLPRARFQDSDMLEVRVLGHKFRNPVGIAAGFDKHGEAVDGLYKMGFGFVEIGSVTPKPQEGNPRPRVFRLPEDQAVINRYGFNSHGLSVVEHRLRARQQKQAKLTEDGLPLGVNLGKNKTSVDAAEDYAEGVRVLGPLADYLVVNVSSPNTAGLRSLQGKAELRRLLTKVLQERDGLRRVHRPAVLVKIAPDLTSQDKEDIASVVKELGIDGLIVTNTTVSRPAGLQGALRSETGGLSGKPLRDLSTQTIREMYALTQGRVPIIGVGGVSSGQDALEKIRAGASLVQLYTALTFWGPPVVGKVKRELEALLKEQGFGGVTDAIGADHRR
endpoint.name: LLE

Below, each entry is followed by its recorded LLE result.
C/C(=N\Nc1nc(-c2ccc(Br)cc2)cs1)c1ccccc1O; <−0.81
CC(C)c1ccc(-c2csc(N/N=C/c3ccccc3O)n2)cc1; <−1.23
Oc1ccccc1/C=N/Nc1nc(-c2ccc(Cl)c(Cl)c2)cs1; <−1.03
Cc1sc(N/N=C/c2cc([N+](=O)[O-])ccc2O)nc1-c1ccccc1; <−0.48
Brc1ccc(-c2csc(N/N=C/c3ccco3)n2)cc1; <0

Given O=C(O)c1ccccc1/C=N/Nc1nc(-c2ccc(-c3ccccc3)cc2)cs1 , state its recorded LLE. <−0.04

Cited source for all entries: paper PMC4595849
